Catalogue of activation readings, one per entry.
# SYSTEM: Kallikrein-7 (Homo sapiens)
# MEASUREMENT_DESCRIPTION: activation of human kallikrein-7 proenzyme – biochemical, fluorescence intensity, primary screen (AID 652039)
# REPORTED_CONDITIONS: purified proKLK7, EDANS-DABCYL substrate fluorescence; at 7 µM; active compounds read high; 100% is mature enzyme control, 0% vehicle
The campaign covered roughly 370,000 compounds. About 3,300 (0.89%) were called active. The list comes from a sample in which actives are over-represented; it also holds close analogues and randomly drawn compounds.

MOLECULE: CCc1cc(=O)oc2c(C)c(OCC(=O)NCCN3CCOCC3)ccc12
SYSTEM: Kallikrein-7 (Homo sapiens)
activation (%): 1.04

MOLECULE: CC(=O)N1CCCN(C2=Nc3ccccc3Sc3ccccc32)CC1
SYSTEM: Kallikrein-7 (Homo sapiens)
activation (%): 0.25

MOLECULE: Cc1cc(=O)oc2c(C)c(OCC(=O)NCCN3CCOCC3)ccc12
SYSTEM: Kallikrein-7 (Homo sapiens)
activation (%): -0.44

MOLECULE: CCOC(=O)c1oc2c(CN3CCN(C)CC3)c(O)ccc2c(=O)c1-c1ccc(Br)cc1
SYSTEM: Kallikrein-7 (Homo sapiens)
activation (%): 0.69

MOLECULE: O=c1[nH]c(CN2CCOCC2)nc2scc(-c3ccccc3)c12
SYSTEM: Kallikrein-7 (Homo sapiens)
activation (%): -0.59

MOLECULE: Cc1cc(=O)oc2c3c(cc(OCC(=O)N[C@H](C(=O)O)c4ccccc4)c12)OC(C)(C)CC3
SYSTEM: Kallikrein-7 (Homo sapiens)
activation (%): 47.5

====

# SYSTEM: Kallikrein-7 (Homo sapiens) (UniProt P49862)
# Sequence (P49862 whole entry, looked up): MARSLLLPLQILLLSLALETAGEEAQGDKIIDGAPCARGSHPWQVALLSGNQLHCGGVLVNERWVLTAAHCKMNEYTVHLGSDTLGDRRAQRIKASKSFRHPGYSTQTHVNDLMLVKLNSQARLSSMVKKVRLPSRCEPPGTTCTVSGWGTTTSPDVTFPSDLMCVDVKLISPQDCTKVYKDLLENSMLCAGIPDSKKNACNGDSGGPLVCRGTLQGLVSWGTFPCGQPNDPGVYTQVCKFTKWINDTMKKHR
# MEASUREMENT_DESCRIPTION: activation of human kallikrein-7 proenzyme – biochemical, fluorescence intensity, primary screen (AID 652039)
# REPORTED_CONDITIONS: purified proKLK7, EDANS-DABCYL substrate fluorescence; at 7 µM; 100% is mature enzyme control, 0% vehicle
Hit rate of the full screen: of about 370,000 compounds, about 3,300 (0.89%) were called active.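 How the source made its calls: active means activation above the mean of all tested compounds plus 3 SD, computed per campaign excluding outliers beyond control limits (cut at about 13% in these data); inactive means the rest.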 For the sample, actives were picked, then their nearest neighbours and some compounds at random.
Labels: active, inactive

COMPOUND: O=C(NCc1ccco1)c1cnn2c(C(F)(F)F)cc(-c3ccco3)nc12
LABEL: inactive

COMPOUND: COc1ccc(C(=O)/C=C/c2ccc(-c3ccccc3)cc2)cc1CSCC(=O)O
LABEL: inactive

COMPOUND: Cc1nc2ccccc2nc1CC(O)(c1ccccc1)c1ccccc1
LABEL: inactive

COMPOUND: O=C(Nc1nncs1)c1ccccc1NS(=O)(=O)c1cccs1
LABEL: active

COMPOUND: CCOc1ccc2[nH]c(=O)c(CN(Cc3nnnn3CCc3ccccc3)CC3CCCO3)cc2c1 (stereo unspecified)
LABEL: inactive

COMPOUND: COc1ccc(CN(CCN2CCOCC2)C(=O)c2ccc(C)cc2)cc1OC
LABEL: inactive

COMPOUND: N#Cc1nc(Cc2cccc3ccccc23)oc1NCc1ccc2c(c1)OCO2
LABEL: inactive

COMPOUND: O=C(c1cc(-c2ccco2)nc2ccccc12)N(Cc1nnc(-c2ccc(Cl)cc2)o1)C1CC1
LABEL: inactive

COMPOUND: CN[C@H]1C[C@H]2c3cc(N4CCOCC4)ccc3CCN2C[C@H]1[C@H](C)O
LABEL: inactive

COMPOUND: O=C(NC1CCCCN(Cc2cccc(C(F)(F)F)c2)C1=O)c1ccccc1I (stereo unspecified)
LABEL: inactive

COMPOUND: Cc1nc2ccccc2cc1O
LABEL: active

COMPOUND: COC(=O)C1CN(CCc2ccccc2)CCS(=O)(=O)N1Cc1cccc(Cl)c1 (stereo unspecified)
LABEL: inactive

COMPOUND: COc1cc(NC(=O)c2ccccc2NS(=O)(=O)c2ccc(Cl)s2)cc(OC)c1
LABEL: inactive

COMPOUND: COC(=O)Cc1nc2c(N)nc(N)nc2[nH]c1=O
LABEL: active

COMPOUND: CC(=O)N1CCN(S(=O)(=O)c2cccc(C(=O)NC3CCC(C)CC3)c2)CC1 (stereo unspecified)
LABEL: inactive

COMPOUND: CCOC(=O)c1[nH]c2ccc(OC)cc2c1NC(=O)CCN1CCN(Cc2ccccc2)CC1
LABEL: active

COMPOUND: Cc1ccc(O)c(CCc2ccccc2)n1
LABEL: inactive

COMPOUND: Cc1nc2cccnc2nc1C
LABEL: inactive

COMPOUND: COc1cc2[nH]c(=O)n(CCC(=O)NC3CCN(Cc4ccccc4)CC3)c(=O)c2cc1OC
LABEL: inactive

COMPOUND: COc1cc2c(cc1OC)C(Nc1ccc(S(N)(=O)=O)cc1)=NC(C)(C)C2
LABEL: inactive

COMPOUND: CCC(c1nnnn1Cc1ccco1)N(Cc1cc2cc(OC)ccc2[nH]c1=O)C1CCCCC1 (stereo unspecified)
LABEL: inactive

====

Catalogue of activation readings, one per entry.
# SYSTEM: Kallikrein-7 (Homo sapiens) (UniProt P49862)
# MEASUREMENT_DESCRIPTION: activation of human kallikrein-7 proenzyme – biochemical, fluorescence intensity, primary screen (AID 652039)
# REPORTED_CONDITIONS: purified proKLK7, EDANS-DABCYL substrate fluorescence; at 7 µM; active compounds read high; 100% is mature enzyme control, 0% vehicle
Among all 370,000 compounds or so, about 3,300 (0.89%) were called active. The full list was thinned out, with actives kept by preference.

MOLECULE: COc1cc(Cn2c3ccc(NC(=O)CC(C)c4ccccc4)cc3c(=O)n2C)ccc1F (configuration not stated)
SYSTEM: Kallikrein-7 (Homo sapiens) (UniProt P49862)
UNIT_STRING: %
activation: 2.56

MOLECULE: Cc1ccc2nc3c(cc(C(=O)NCCc4ccccc4)c(=N)n3CC3CCCO3)c(=O)n2c1 (configuration not stated)
SYSTEM: Kallikrein-7 (Homo sapiens) (UniProt P49862)
UNIT_STRING: %
activation: 25.4

MOLECULE: CCNC(=S)Nc1ccc2c(c1)c(=O)n(C)n2Cc1ccc(Cl)cc1
SYSTEM: Kallikrein-7 (Homo sapiens) (UniProt P49862)
UNIT_STRING: %
activation: 21.2

MOLECULE: Cc1cc(C(F)(F)F)c(C#N)c(SCC(=O)NC2CC2)n1
SYSTEM: Kallikrein-7 (Homo sapiens) (UniProt P49862)
UNIT_STRING: %
activation: -0.4

MOLECULE: CCC(C)[C@@H](C(=O)OC)N(CCc1cn(Cc2ccccc2)nn1)S(=O)(=O)c1ccccc1Br (some centres not stated)
SYSTEM: Kallikrein-7 (Homo sapiens) (UniProt P49862)
UNIT_STRING: %
activation: 0.31

MOLECULE: COc1ccc([C@H]2OC(=O)C[C@H]2C(=O)N2CCN(c3ccccc3F)CC2)cc1OC
SYSTEM: Kallikrein-7 (Homo sapiens) (UniProt P49862)
UNIT_STRING: %
activation: -0.74

MOLECULE: COC(=O)C1CN(Cc2cn(Cc3ccc(F)cc3)nn2)CCS(=O)(=O)N1Cc1ccc(Cl)cc1 (configuration not stated)
SYSTEM: Kallikrein-7 (Homo sapiens) (UniProt P49862)
UNIT_STRING: %
activation: -0.37

MOLECULE: Cc1ccc(-n2c(COc3ccccc3)nnc2SCC(=O)Nc2ccc3c(c2)OCCO3)cc1
SYSTEM: Kallikrein-7 (Homo sapiens) (UniProt P49862)
UNIT_STRING: %
activation: 0.98

MOLECULE: O=C(O)c1cccnc1Sc1ncnc2sc3c(c12)CCC3
SYSTEM: Kallikrein-7 (Homo sapiens) (UniProt P49862)
UNIT_STRING: %
activation: 12.7

MOLECULE: Cn1c(=O)c2cc(NC(=O)NCCc3cccs3)ccc2n1Cc1cccc(C(F)(F)F)c1
SYSTEM: Kallikrein-7 (Homo sapiens) (UniProt P49862)
UNIT_STRING: %
activation: -1.5

MOLECULE: COC(=O)C1=CN(C)C=C(C(=O)OC)C1c1ccc(Cl)cc1Cl
SYSTEM: Kallikrein-7 (Homo sapiens) (UniProt P49862)
UNIT_STRING: %
activation: 0.08

MOLECULE: CC(C)Oc1ccc(CCc2nnc(SCC(=O)O)n2-c2ccccc2)cc1
SYSTEM: Kallikrein-7 (Homo sapiens) (UniProt P49862)
UNIT_STRING: %
activation: 0.35

MOLECULE: C=CCN(C)CC#Cc1ccccc1
SYSTEM: Kallikrein-7 (Homo sapiens) (UniProt P49862)
UNIT_STRING: %
activation: -0.36

MOLECULE: Clc1ccc(-n2c(SC/C=C/c3ccccc3)nnc2-c2ccco2)cc1
SYSTEM: Kallikrein-7 (Homo sapiens) (UniProt P49862)
UNIT_STRING: %
activation: 0.14

MOLECULE: CCOc1ccccc1C1C(C(=O)OC)=CN(C)C=C1C(=O)OC
SYSTEM: Kallikrein-7 (Homo sapiens) (UniProt P49862)
UNIT_STRING: %
activation: 46.1

MOLECULE: COc1cccc(N2CCN(CC(=O)N(C)Cc3ccc(F)cc3)CC2)c1
SYSTEM: Kallikrein-7 (Homo sapiens) (UniProt P49862)
UNIT_STRING: %
activation: 0.13

MOLECULE: COC(=O)[C@]1(C#N)CC(=O)N(CC2CCCCC2)[C@@H]1c1ccccc1
SYSTEM: Kallikrein-7 (Homo sapiens) (UniProt P49862)
UNIT_STRING: %
activation: -0.2

MOLECULE: CSc1ccc(C=Nn2c(-c3ccc(F)cc3)n[nH]c2=S)cc1
SYSTEM: Kallikrein-7 (Homo sapiens) (UniProt P49862)
UNIT_STRING: %
activation: -0.19

MOLECULE: CCCCCCN1CCS(=O)(=O)N(Cc2ccc(C(F)(F)F)cc2)C(C(=O)OC)C1 (configuration not stated)
SYSTEM: Kallikrein-7 (Homo sapiens) (UniProt P49862)
UNIT_STRING: %
activation: 0.5

MOLECULE: Cc1ccc(OCc2nnc(SC/C=C/c3ccccc3)n2Cc2ccco2)cc1
SYSTEM: Kallikrein-7 (Homo sapiens) (UniProt P49862)
UNIT_STRING: %
activation: 0.81

MOLECULE: CC1(C)CC(=O)CC2(C1)NCC(c1ccccc1Cl)c1c2[nH]c2ccccc12 (configuration not stated)
SYSTEM: Kallikrein-7 (Homo sapiens) (UniProt P49862)
UNIT_STRING: %
activation: 0.29

MOLECULE: CCOc1ccccc1NC(=O)NC1CCCCCCC1
SYSTEM: Kallikrein-7 (Homo sapiens) (UniProt P49862)
UNIT_STRING: %
activation: 0.05
